# Tested on: Panc02.13 cells expressing vector only (02.13-WT)
# ASSAY TEXT: Kinetic cell growth assay, Panc02.13 cells expressing vector only
# Format: cell-based, human
# RUN PARAMETERS: Homo sapiens, low density, read-out: Low density (EC50, nM) 02.13-WT
Counter-ions that a name gives are not always drawn.
MEASURED QUANTITY: EC50 (nM)
Report as a plain number; the unit nM is understood.

Problem: What does the data say about its EC50? Entry: CC(=O)O[C@H]1C(=O)[C@@]2(C)[C@H]([C@H](OC(=O)c3ccccc3)[C@]3(O)C[C@H](OC(=O)[C@H](O)[C@@H](NC(=O)c4ccccc4)c4ccccc4)C(C)=C1C3(C)C)[C@]1(OC(C)=O)CO[C@@H]1C[C@@H]2O [Paclitaxel]
Result: 3

Problem: What does the data say about its EC50? Entry: Nc1ccn([C@@H]2O[C@H](CO)[C@@H](O)C2(F)F)c(=O)n1 [Gemcitabine, Gemcitabine hydrochloride]
Result: 1.6

Problem: What does the data say about its EC50? Entry: COc1cccc2c1C(=O)c1c(O)c3c(c(O)c1C2=O)C[C@@](O)(C(=O)CO)C[C@@H]3O[C@H]1C[C@H](N)[C@H](O)[C@H](C)O1 [Doxorubicin]
Result: 35
